meta.source: PubChem BioAssay (NCATS)

Test: qHTS profiling of the MIPE4 collection as inhibitors of Plasmodium falciparum (DD2) proliferation (Rep 2) (AID 743346)
Settings: P. falciparum Dd2 in erythrocytes, SYBR Green DNA, 72 h; at 28.5 µM unless noted
This section presents molecules with their documented parasite growth, % of control (lower = inhibition) values.
Write the answer as a number in %, unit excluded.

Cc1ccccc1C(C(=O)NC1CCCCC1)N(C(=O)Cn1ccnc1C)c1cccc(F)c1 (stereo not drawn) :: 25.9
Nc1nc(F)nc2c1ncn2[C@@H]1O[C@H](COP(=O)(O)O)[C@@H](O)[C@H]1O :: 10.9
CCCCCN(C)CCC(O)(P(=O)(O)O)P(=O)(O)O :: 114
Cc1ccc(/C=N/NC(=O)c2ccccc2Oc2ccccc2)o1 :: 120
O=C1NC(=O)C(=Cc2ccc(-c3ccc(F)cc3)o2)S1 :: 91.6

Quick note, parasite growth, % of control (lower = inhibition) for "O=C(O)c1ccc(-c2c[nH]c3ncc(-c4ccccc4)cc23)cc1C1CCCC1" landed at 9.67

Quick note, parasite growth, % of control (lower = inhibition) for "CC1(C)S[C@H]2[C@H](NC(=O)[C@@H](N)c3ccc(O)cc3)C(=O)N2[C@@H]1C(=O)O" landed at 8.21

Quick note, parasite growth, % of control (lower = inhibition) for "COc1cc2c(cc1OC)CN(CCc1ccc(NC(=O)c3cc(OC)c(OC)cc3NC(=O)c3cnc4ccccc4c3)cc1)CC2" landed at 83.4

Quick note, parasite growth, % of control (lower = inhibition) for "CC(C)(Cc1ccc2ccccc2c1)NC[C@@H](O)COc1cccc(Cl)c1C#N" landed at 59.5

Quick note, parasite growth, % of control (lower = inhibition) for "O=c1cc(-c2ccccc2)oc2cc(O)cc(O)c12" landed at 49.8

Quick note, parasite growth, % of control (lower = inhibition) for O=c1c(-c2ccc(O)cc2)coc2cc(OC3O[C@H](CO)[C@H](O)[C@H](O)[C@H]3O)cc(O)c12 (stereo partly drawn) landed at 65.7

Quick note, parasite growth, % of control (lower = inhibition) for "O=C(O)c1ccc(-c2cc3cccnc3c(-c3ccc4nonc4c3)n2)cc1" landed at 37.1

Quick note, parasite growth, % of control (lower = inhibition) for "COc1cc(NC(=O)c2ccc(-c3ccc(Cl)cc3)o2)cc(OC)c1" landed at 99.4

Quick note, parasite growth, % of control (lower = inhibition) for "CC(C)C(=O)Nc1ncc(-c2cc(C(F)F)nn2-c2c(Cl)cccc2Cl)s1" landed at 18.7

Quick note, parasite growth, % of control (lower = inhibition) for "CC#CCn1c(N2CCC[C@@H](N)C2)nc2c1c(=O)n(Cc1nc(C)c3ccccc3n1)c(=O)n2C" landed at 22.9

Quick note, parasite growth, % of control (lower = inhibition) for "O=C(OCC#CCSc1nnc(-c2cccc3ccccc23)o1)c1cc2ccccc2s1" landed at 64.2

Quick note, parasite growth, % of control (lower = inhibition) for "CCc1ccc(C=C2SC(=S)NC2=O)cc1" landed at 115

Quick note, parasite growth, % of control (lower = inhibition) for "CC(C)n1cnc2c(NCCCCCCNC(=O)OC(C)(C)C)nc(NCCO)nc21" landed at 24.8

Quick note, parasite growth, % of control (lower = inhibition) for "CC[C@@]1(O)C[C@H](O[C@H]2C[C@H](N(C)C)[C@H](O[C@H]3C[C@H](O)[C@H](O[C@H]4CCC(=O)[C@H](C)O4)[C@H](C)O3)[C@H](C)O2)c2c(cc3c(c2O)C(=O)c2c(O)cccc2C3=O)[C@@H]1C(=O)OC" landed at 5.22

====

Assay: P-glycoprotein substrates identified in KB-8-5-11 adenocarcinoma cell line, qHTS therapeutic library screen (AID 1346987); further: nearly all actives have a fitted effect of over 65% in size
Conditions: KB-8-5-11 (P-gp overexpressing) viability, CellTiter-Glo, 72 h; series mostly up to 44.5 µM
Inconclusive results are not listed. Activity calls are given as the source filed them. Calls follow the shape of the dose curve; as a rule, active = well fitted inhibition curve with a large enough effect; inconclusive = small, poorly fitted or top-dose-only effect; inactive = flat fitted curve, though single readings scatter.
Give one outcome, nothing more. List: True for active, False for inactive

Answered examples (5):
COc1ccc(-n2c(C)c([N+](=O)[O-])c3ccc(O)cc32)cc1 :: False
CN(C)CCC=C1c2ccccc2COc2ccc(CC(=O)O)cc21 :: False
COc1ccc(C2Sc3ccccc3N(CCN(C)C)C(=O)C2OC(C)=O)cc1 (stereo unspecified) :: False
COc1ccc2c3c1OC1C[C@@H](O)C=C[C@@]31CCN(C)C2 (stereo partly specified) :: False
O=C1NC(=O)C(c2ccccc2)(c2ccccc2)N1 :: False

Write down the call the test reported for this compound. Item: "CC(C)C(=O)Nc1ncc(-c2cc(C(F)F)nn2-c2c(Cl)cccc2Cl)s1"
True

Write down the call the test reported for this compound. Item: "C[C@@H](O)[C@H]1C(=O)N2C(C(=O)O)=C(S[C@@H]3CN[C@H](C(=O)N(C)C)C3)[C@H](C)[C@H]12"
False

Write down the call the test reported for this compound. Item: "OC[C@@H](O)[C@H](O)[C@H](O)[C@@H](O)CO"
False

Write down the call the test reported for this compound. Item: "CC1(C)CCC2=C(O1)c1ccccc1C(=O)C2=O"
False

Write down the call the test reported for this compound. Item: "CCN(CC)C(=O)c1ccc(O)c(OC)c1"
False

Write down the call the test reported for this compound. Item: "O=C(Nc1ccccc1-c1cn2c(CN3CCNCC3)csc2n1)c1cnc2ccccc2n1"
True

Write down the call the test reported for this compound. Item: "C[C@]12CC[C@@H]3c4ccc(O)cc4CC[C@H]3[C@H]1C[C@@H](O)[C@H]2O"
False

Write down the call the test reported for this compound. Item: "CCN1CCC[C@H]1CNC(=O)c1cc(S(N)(=O)=O)ccc1OC"
False

Write down the call the test reported for this compound. Item: "O=C(CCc1ccc(O)cc1)c1c(O)cc(O)cc1O[C@@H]1O[C@H](CO)[C@H](O)[C@H](O)[C@H]1O"
False

Write down the call the test reported for this compound. Item: "CN(C)c1cc(NC(=O)CNC(C)(C)C)c(O)c2c1C[C@@H]1C[C@H]3[C@H](N(C)C)C(=O)C(C(N)=O)=C(O)[C@@]3(O)C(=O)C1=C2O"
False

Write down the call the test reported for this compound. Item: "O=C(O)c1ccccc1C(=O)Nc1ccc(-c2ccccc2)cc1"
False

Write down the call the test reported for this compound. Item: "CC=CC(=O)N(CC)c1ccccc1C"
False

====

Experiment: Quantitative High-Throughput drug screen in 47 multiple myeloma cell lines against the NCATS MIPE library collection: NCIH929_DSMZ cell viability assay (AID 1918978); further: nearly all actives have a fitted effect of over 35% in size
Conditions: NCI-H929 myeloma viability, CellTiter-Glo ATP, 48 h; series mostly up to 45.8 µM
Results filed as inconclusive are left out. The source made the active and inactive calls. The call rests on the fitted dose curve; in most records, active means well fitted cell-killing curve with a large enough effect; inconclusive means small, poorly fitted or top-dose-only effect; inactive means no such curve, though single readings can be large or run the other way.
Give one outcome, nothing more. List: active, inactive

Answered examples (3):
CN[C@@H](C)C(=O)N[C@H]1CN(C(=O)CC(C)C)CC[C@H]2CC[C@@H](C(=O)NC(c3ccccc3)c3ccccc3)N2C1=O :: active
CN1C[C@H]2c3ccccc3Oc3ccc(Cl)cc3[C@@H]2C1 :: inactive
COc1ccc(-c2coc3cc(O)cc(O)c3c2=O)cc1 :: inactive

Write down the call the test reported for this compound. Item: CNC1CCC(N(Cc2cccc(-c3ccncc3)c2)C(=O)c2sc3c(F)ccc(F)c3c2Cl)CC1 (stereo not drawn)
active

Write down the call the test reported for this compound. Item: Cc1nnc(C(C)C)n1C1C[C@H]2CC[C@@H](C1)N2CC[C@H](NC(=O)C1CCC(F)(F)CC1)c1ccccc1 (stereo partly drawn)
active

Write down the call the test reported for this compound. Item: "Oc1ccc(C2CCN(c3ccnc4ccccc34)CC2)cc1O"
active

Write down the call the test reported for this compound. Item: "Cc1[nH]c(C=C2C(=O)Nc3ccc(S(=O)(=O)Cc4c(Cl)cccc4Cl)cc32)c(C)c1C(=O)N1CCC[C@H]1CN1CCCC1"
active

Write down the call the test reported for this compound. Item: "Cc1cc(OCCCc2c(C(=O)O)n(Cc3cccnc3)c3c(-c4c(COc5ccc(N6CCN([S+](C)(=O)[O-])CC6)cc5)nn(C)c4C)cccc23)cc(C)c1Cl"
active

====

This section presents compounds with their documented parasite growth, % of control (lower = inhibition) values.
Test: qHTS profiling of the MIPE4 collection as inhibitors of Plasmodium falciparum (DD2) proliferation (Rep 2) (AID 743346)
Conditions: P. falciparum Dd2 in erythrocytes, SYBR Green DNA, 72 h; at 28.5 µM unless noted
Write the answer as a number in %, unit excluded.

Oc1ccc(C2=Cc3ccc(O)cc3OC2)cc1 :: 27.9
Nc1ncnc2ccccc12 :: 82.3

Quick note, parasite growth, % of control (lower = inhibition) for "CC(C)=CC[C@@H](O)C1=CC(=O)c2c(O)ccc(O)c2C1=O" landed at 4.13

Quick note, parasite growth, % of control (lower = inhibition) for "CC(C)(C(=O)NCC(F)(F)C(F)(F)F)C(=O)N[C@@H]1C(=O)Nc2ccccc2-c2ccccc21" landed at 11.3

Quick note, parasite growth, % of control (lower = inhibition) for "Cc1c(NC(=O)c2ccc(C(C)(C)C)cc2)cccc1-c1cn(C)c(=O)c(Nc2ccc(C(=O)N3CCOCC3)cc2)n1" landed at 10.1

Quick note, parasite growth, % of control (lower = inhibition) for "CON=C(C(=O)N[C@@H]1C(=O)N2C(C(=O)OCOC(=O)C(C)(C)C)=C(C=Cc3scnc3C)CS[C@H]12)c1csc(N)n1" landed at 73

Quick note, parasite growth, % of control (lower = inhibition) for "CN1CCN(CCOc2cc(OC3CCOCC3)c3c(Nc4c(Cl)ccc5c4OCO5)ncnc3c2)CC1" landed at 7.87

Quick note, parasite growth, % of control (lower = inhibition) for "Nc1ncnc2c1ncn2[C@@H]1O[C@H](CO)C[C@@H]1O" landed at 57.5

Quick note, parasite growth, % of control (lower = inhibition) for "CO[C@H]1C[C@@H]2CC[C@@H](C)[C@@](O)(O2)C(=O)C(=O)N2CCCC[C@@H]2C(=O)O[C@H]([C@H](C)C[C@@H]2CC[C@H](OP(C)(C)=O)[C@H](OC)C2)CC(=O)[C@H](C)C=C(C)[C@@H](O)[C@@H](OC)C(=O)[C@H](C)C[C@H](C)C=CC=CC=C1C" landed at 9.19

Quick note, parasite growth, % of control (lower = inhibition) for "O=C(CCc1ccc(O)cc1)c1c(O)cc(O)cc1O[C@@H]1O[C@H](CO)[C@H](O)[C@H](O)[C@H]1O" landed at 57.9

Quick note, parasite growth, % of control (lower = inhibition) for "CN(C)c1cc(NC(=O)CNC(C)(C)C)c(O)c2c1C[C@@H]1C[C@H]3[C@H](N(C)C)C(=O)C(C(N)=O)=C(O)[C@@]3(O)C(=O)C1=C2O" landed at 106

Quick note, parasite growth, % of control (lower = inhibition) for "CC(C)(C)COc1ccc(-n2cc(C(=O)O)cn2)cc1C#N" landed at 76.9
